# TGT: KRas G12D (Homo sapiens (Human), UniProt P01116, G12D)
# Sequence (P01116 other isoform, or with tags, fused parts or gaps G12D): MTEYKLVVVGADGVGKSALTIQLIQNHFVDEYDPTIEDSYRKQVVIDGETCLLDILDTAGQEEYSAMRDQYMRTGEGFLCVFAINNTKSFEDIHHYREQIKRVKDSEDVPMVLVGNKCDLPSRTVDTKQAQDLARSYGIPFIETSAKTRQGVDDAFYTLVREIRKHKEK
# ASSAY_OVERVIEW: KRas G12D Binding Assay (TR-FRET displacement of Cy5 labelled tracer)
# CONDITION_INFO: GDP-loaded KRAS G12D (amino acids 1:169), 60 minute incubation at 22° C.
As shown below, each of these compounds has a reported pIC50 value.
Kindly note that pIC50 refers to -log10 of the concentration in mol/L and answer with the value alone.

Study these solved cases before continuing.
COMPOUND	RECORDED_RESULT
COC1(OC)CN2CCCC2(COc2nc(N3C[C@H]4CC[C@@H](C3)N4)c3cnc(-c4cccc5cccc(Cl)c45)c(F)c3n2)C1 (stereo partly shown) [Example 404]	7.22
CNC(=O)OC[C@H]1CC[C@@]2(COc3nc(N4CC5CCC(C4)N5)c4cnc(-c5cccc6cccc(Cl)c56)c(F)c4n3)CCCN12 [Example 408]	8.51
Cc1ccc2[nH]ncc2c1-c1ncc2c(N3C[C@H]4CC[C@@H](C3)N4)nc(OCCc3nccn3C)nc2c1F [Example 88]	5.15
Cn1cnc(COc2nc(N3C[C@H]4CC[C@@H](C3)N4)c3cnc(-c4cc(O)cc5ccccc45)c(F)c3n2)c1 [Example 9]	6.09
C#Cc1c(F)ccc2cc(O)cc(-c3ncc4c(N5C[C@H]6CC[C@@H](C5)N6)nc(OCC56CCCN5CCC6)nc4c3F)c12 [Example 232]	9.22

The record that follows has no pIC50 shown yet.
Incoming: Given Oc1cc(-c2ncc3c(N4C[C@H]5CC[C@@H](C4)N5)nc(OCC(F)(F)F)nc3c2F)c2ccccc2c1 [Example 48] , state its recorded pIC50.
Outgoing: 6.36

* * *

# TGT: KRas G12D (Homo sapiens (Human), UniProt P01116, G12D)
# ASSAY_OVERVIEW: KRas G12D Binding Assay (TR-FRET displacement of Cy5 labelled tracer)
# CONDITION_INFO: GDP-loaded KRAS G12D (amino acids 1:169), 60 minute incubation at 22° C.
# Experimental: After a 60 minute incubation at 22° C., the reaction was measured using a PerkinElmer EnVision multimode plate reader via TR-FRET dual wavelength detection, and the percent of control (POC) calculated using a ratiometric emission factor. […] The POC values were fit to a 4-parameter logistic curve and the IC50 value was determined as the concentration where the curve crosses 50 POC. ND stands for “not determined.”
As shown below, each of these molecules has a reported IC50 value.
Write the number in nM without appending the unit.

Study these solved cases before continuing.
MOLECULE	RECORDED_RESULT
Fc1c(-c2cccc3cccc(Cl)c23)ncc2c(N3C[C@H]4CC[C@@H](C3)N4)nc(OCc3cccn4ccnc34)nc12 [Example 150]	1980
COc1c(Cl)cccc1-c1ncc2c(N3C[C@H]4CC[C@@H](C3)N4)nc(OCC34CCCN3CCC4)nc2c1F [Example 311]	135
CN1CCC[C@H]1COc1nc(N2CC3CCC(CCC#N)(C2)N3)c2cnc(-c3cc(O)cc4ccccc34)c(F)c2n1 (stereo partly drawn) [Example 157, bis(2,2,2-trifluoroacetate)]	26.6
CN1C[C@H](NC(=O)c2cccc(C=O)c2)C[C@H]1COc1nc(N2C[C@H]3CC[C@@H](C2)N3)c2cnc(-c3cccc4cccc(Cl)c34)c(F)c2n1 [Example 354]	368

Incoming: Given CC#Cc1cccc2cccc(-c3ncc4c(N5C[C@H]6CC[C@@H](C5)N6)nc(OCC56CCCN5CCC6)nc4c3F)c12 [Example 195] , state its recorded IC50.
Outgoing: 20.7

Incoming: Similarly, CN1CC[C@H](COc2nc(N3C[C@H]4CC[C@@H](C3)N4)c3cnc(-c4cccc5cccc(Cl)c45)c(F)c3n2)C1 [Example 357] ?
Outgoing: 438

Each recorded value in this set is attributed to patent US20230279025A1.
